Molecular target: T1, alpha-s1 casein from Bos taurus
T1 chain: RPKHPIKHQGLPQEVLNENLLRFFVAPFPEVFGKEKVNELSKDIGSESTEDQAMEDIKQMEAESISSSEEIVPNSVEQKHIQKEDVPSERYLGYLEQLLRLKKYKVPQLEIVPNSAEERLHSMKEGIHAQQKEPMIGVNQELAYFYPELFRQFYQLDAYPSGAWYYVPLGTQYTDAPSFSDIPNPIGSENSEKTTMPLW
attribute measured: (αSN1-1)/(αSN1), 6 hours, 11° C.
// print number alone

Enquiry: State the recorded (αSN1-1)/(αSN1), 6 hours, 11° C. for this entry: camel chymosin variant #152 (D290G) (protein) GKVAREPLTSYLDSQYFGKIYIGTPPQEFTVVFDTGSSDLWVPSIYCKSNVCKNHHRFDPRKSSTFRNLGKPLSIHYGTGSMEGFLGYDTVTVSNIVDPNQTVGLSTEQPGEVFTYSEFDGILGLAYPSLASEYSVPVFDNMMDRHLVARDLFSVYMDRNGQGSMLTLGAIDPSYYTGSLHWVPVTLQQYWQFTVDSVTINGVAVACVGGCQAILDTGTSVLFGPSSDILKIQMAIGATENRYGEFDVNCGNLRSMPTVVFEINGRDYPLSPSAYTSKDQGFCTSGFQGGNNSELWILGDVFIREYYSVFDRANNRVGLAKAI
Return: 0.9

Enquiry: // same read-out, input: camel chymosin variant #136 (F223C) (protein) GKVAREPLTSYLDSQYFGKIYIGTPPQEFTVVFDTGSSDLWVPSIYCKSNVCKNHHRFDPRKSSTFRNLGKPLSIHYGTGSMEGFLGYDTVTVSNIVDPNQTVGLSTEQPGEVFTYSEFDGILGLAYPSLASEYSVPVFDNMMDRHLVARDLFSVYMDRNGQGSMLTLGAIDPSYYTGSLHWVPVTLQQYWQFTVDSVTINGVAVACVGGCQAILDTGTSVLCGPSSDILKIQMAIGATENRYGEFDVNCGNLRSMPTVVFEINGRDYPLSPSAYTSKDQGFCTSGFQGDNNSELWILGDVFIREYYSVFDRANNRVGLAKAI
Return: 0.7
